- test_name: chemical genetic growth profiling, strain panel (AID 1159580);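 note: tested at 20 µM; growth read once vehicle control cultures reached saturation at 30 °C; lower values mean less growth of the strain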
- conditions_used: S. cerevisiae deletion strains, growth OD, locus YHR027C, strain rpn1, hits give low values
In all, about 5,500 compounds went through this assay and about 2,000 (36%) were called active. Another 18% or so got no clear call; they are omitted. This is one part of the list.
Mark each entry MET if its normalized growth sits below 1, and NOT MET for all others.

Does this molecule meet the criterion normalized growth < 1? CC(C[N+](C)(C)C)OC(N)=O (configuration not stated) NOT MET

Given the entry COC1=C(OC)C(=O)C(C/C=C(\C)CC/C=C(\C)CC/C=C(\C)CC/C=C(/C)CC/C=C(\C)CC/C=C(\C)CC/C=C(\C)CC/C=C(\C)CC/C=C(\C)CCC=C(C)C)=C(C)C1=O , would its reported normalized growth be below 1? MET

// data source = PubChem BioAssay AID1159580
